biological target: human cannabinoid receptor 1 (huCB1), full length, expressed on cells (human, UniProt P21554 1-472); assay: cell-based or functional assay
Sequence (P21554 whole entry): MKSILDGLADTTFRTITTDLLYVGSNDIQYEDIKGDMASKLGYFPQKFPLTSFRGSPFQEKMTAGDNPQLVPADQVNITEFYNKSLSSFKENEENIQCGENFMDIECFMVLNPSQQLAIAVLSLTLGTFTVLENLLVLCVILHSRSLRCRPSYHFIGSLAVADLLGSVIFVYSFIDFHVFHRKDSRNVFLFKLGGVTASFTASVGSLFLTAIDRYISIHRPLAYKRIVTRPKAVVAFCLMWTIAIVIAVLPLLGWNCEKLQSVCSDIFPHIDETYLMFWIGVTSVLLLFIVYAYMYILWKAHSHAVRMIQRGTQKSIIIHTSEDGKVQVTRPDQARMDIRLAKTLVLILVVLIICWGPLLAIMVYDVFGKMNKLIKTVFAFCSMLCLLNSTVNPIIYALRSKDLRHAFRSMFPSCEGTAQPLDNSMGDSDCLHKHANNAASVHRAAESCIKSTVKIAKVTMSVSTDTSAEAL
Hi there, I'd appreciate the recorded Mean IC50, -fold vs Rimo for every entry that follows.
One number for each entry, in fold vs Rimonabant.

// worked examples, Mean IC50, -fold vs Rimo included
BINDER	Mean IC50, -fold vs Rimo (fold vs Rimonabant)
LIBC527814-1 (antibody, V domains shown, Expressed as IgG1 SEFL2 mAb) VH: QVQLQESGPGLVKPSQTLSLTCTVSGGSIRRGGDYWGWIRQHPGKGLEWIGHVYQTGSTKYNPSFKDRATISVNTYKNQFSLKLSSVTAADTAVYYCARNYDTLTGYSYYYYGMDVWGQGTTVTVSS VL: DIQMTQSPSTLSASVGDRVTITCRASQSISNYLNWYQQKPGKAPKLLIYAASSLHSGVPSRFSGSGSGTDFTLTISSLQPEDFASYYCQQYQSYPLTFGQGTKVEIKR	0.99
LIBC527997-1 (antibody, V domains shown, Expressed as IgG1 SEFL2 mAb) VH: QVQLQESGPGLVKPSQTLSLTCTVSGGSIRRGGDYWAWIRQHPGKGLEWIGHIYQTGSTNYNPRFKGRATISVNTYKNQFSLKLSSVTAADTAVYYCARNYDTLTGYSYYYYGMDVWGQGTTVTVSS VL: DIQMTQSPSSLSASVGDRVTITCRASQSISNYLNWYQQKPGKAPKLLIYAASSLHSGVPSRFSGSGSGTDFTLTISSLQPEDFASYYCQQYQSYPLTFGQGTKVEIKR	0.99

--- query ---
The recorded Mean IC50, -fold vs Rimo for LIBC523661-1 (antibody, V domains shown, Expressed as IgG1 SEFL2 mAb) VH: QVQLQESGPGLVKPSQTLSLTCTVSGGSIRRGGDYWSWIRQHPGKGLEWIGHIYYEGSTKYNPSFKGRATISVNTYKNQFSLKLSSVTAADTAVYYCARDYDPVTGHSYYYYGMDVWGQGTTVTVSS VL: DIVMTQSPLSLPVTPGEPASISCRSSQSLLTSSGYNYVDWYLQKPGQSPQLLIYQGSNRASGVPDRFSGSGSGTDFTLKISRVEAEDVGVYYCRQARAIPRTFGQGTKVEIKR is 1.1
